# Test system: DHL10 Bax/Bak-deficient cells, cytotoxicity, MTS absorbance
# method_summary: cytotoxicity in Bax/Bak-deficient DHL10 cells, late-stage follow-up, counter-screen for MCL1-BIM inhibitor project, cell-based, MTS absorbance, EC50 (AID 493058)
Active and inactive are the calls of the source.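 How the source made its calls: active means EC50 of 10 µM or lower; inactive means EC50 above 10 µM.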
property_label: EC50

>>> measured("O=C(Nc1nccs1)c1cc(-c2ccco2)nc2ccccc12")
"> 25 µM (inactive)"
>>> measured("O=C(Cc1cccs1)Nc1nnc(Cc2ccccc2)s1")
"> 25 µM (inactive)"
>>> measured("COc1ccc(Cc2nnc(NC(=O)c3cc(-c4ccc(C)o4)nc4ccccc34)s2)cc1OC")
"25 µM (inactive)"
>>> measured("CN(CC(=O)Nc1ccc(F)cc1)C(=O)c1cc(-c2ccco2)nc2ccccc12")
"> 25 µM (inactive)"
>>> measured("COc1ccc(Cc2nnc(NC(=O)Cc3cccc(Br)c3)s2)cc1OC")
"> 25 µM (inactive)"
>>> measured("COc1ccc(Cc2nnc(NC(=O)Cc3ccccn3)s2)cc1OC")
"> 25 µM (inactive)"
>>> measured("COc1ccc(NC(=O)c2cc(-c3ccco3)nc3ccccc23)cc1")
"> 25 µM (inactive)"
>>> measured("COc1ccc(Cc2nnc(NC(=O)c3cc(-c4ccco4)nc4ccc(Br)cc34)s2)cc1OC")
"20 µM (inactive)"
>>> measured("CCc1nnc(NC(=O)c2cc(-c3ccc(C)o3)nc3ccccc23)s1")
"> 25 µM (inactive)"
>>> measured("Cc1cccc(NC(=O)c2cc(-c3ccco3)nc3ccccc23)n1")
"> 25 µM (inactive)"
>>> measured("COc1cccc(NC(=O)c2cc(-c3ccco3)nc3ccccc23)c1")
"> 25 µM (inactive)"

Values compiled from PubChem BioAssay AID493058.
